This section presents pKi values reported for Coagulation factor XI (Homo sapiens, UniProt P03951) in the literature.
pKi field: float, defined as -log10 of concentration (mol/L).

# annotated cases, reported pKi shown
COC(=O)Nc1ccc2c(c1)NC(=O)[C@H](C)CCC[C@H](NC(=O)c1cncc(-c3cccc(Cl)c3F)c1)c1cc-2ccn1: 7.44
CC(C)c1cc(CNC(=O)[C@H](Cc2ccccc2)n2cnc(-c3cc(Cl)ccc3-n3cc(Cl)nn3)cc2=O)on1: 5.42
COC(=O)Nc1ccc2c(c1)NC(=O)CCCCCC(C(=O)NCCc1cc(Cl)ccc1-n1cnnn1)NC2=O (single isomer, unassigned): 5.66
O=C(NCC[C@H]1Nc2cccc(c2)[C@@H](n2cnc(-c3cc(Cl)ccc3-n3cc(Cl)nn3)cc2=O)CCCCCNC1=O)c1ccn(C(F)F)n1: 8.30
COC(=O)Nc1ccc2c(c1)NC(=O)[C@H](C)CCC[C@H](NC(=O)c1cn(-c3cccc(C)c3)cn1)c1cc-2ccn1: 7.01

# context switch: different compound, same pKi
Asked: Which value of pKi has been reported for `C[C@@H]1CCC[C@H](N2CCC(c3cc(Cl)ccc3-n3cc(Cl)nn3)=CC2=O)c2cc(ccn2)-c2c(cnn2C)NC1=O` in the records?
Given back: 9.92

====

This section presents Ki values reported for Coagulation factor XI (Homo sapiens) in the literature.
All answers are understood in nM, so give the number only.

C[C@H]1CCC[C@@H](c2ccc(-c3cc(Cl)ccc3-n3cnnn3)c[n+]2[O-])c2cccc(c2)-c2cc(F)ccc2NC1=O: 26.3
CCOC(=O)CNc1ccc2c(c1)NC(=O)[C@H](C)CCC[C@H](NC(=O)c1nnn(-c3cccc(Cl)c3F)c1C)c1cc-2ccn1: 16.8
O=C([C@H](Cc1ccccc1)n1cnc(-c2cc(Cl)ccc2-n2cc(Cl)nn2)cc1=O)N1CCC(Cc2ccccc2)CC1: 13300
O=C(O)c1ccc(NC(=O)C(Cc2ccccc2)n2ccc(-c3cnccc3Cl)cc2=O)cc1 (stereo not drawn): 7750
N=C(N)c1ccc(CNC(=O)CNC(=O)[C@@H](CCc2ccccc2)NS(=O)(=O)Cc2ccc([N+](=O)[O-])cc2)cc1: 93

Asked: Observed Ki on Coagulation factor XI (Homo sapiens) for `O=C1NCCCCC[C@H](n2cnc(-c3cc(Cl)ccc3-n3cc(Cl)nn3)cc2=O)c2cccc(c2)N2CCN(C3COC3)C[C@H]12` , please.
Given back: 13

====

This section presents Ki values reported for Coagulation factor XI (Homo sapiens) in the literature.

# annotated cases, reported Ki shown
COC(=O)Nc1ccc2c(c1)NC(=O)CCCC[C@H](c1ccc(-c3cc(Cl)ccc3-n3cc(C(F)(F)F)cn3)c[n+]1[O-])c1cccc-2c1 (single isomer, unassigned): 0.46 nM
CC(C)[C@@H]1CCC[C@H](N2CCC(c3cc(Cl)ccc3-n3cc(Cl)nn3)=CC2=O)c2cc(ccn2)-c2c(cnn2C)NC1=O: 0.47 nM
O=C1CCCCC(c2ccc(-c3cc(F)ccc3-n3cnnn3)c[n+]2[O-])c2cccc(c2)-c2cc(F)ccc2N1 (single isomer, unassigned): 0.39 nM
COC(=O)Nc1ccc2c(c1)NC(=O)[C@H](C)CCCC(C(=O)N1CCC[C@@]3(C1)OC(=O)Nc1ccc(Cl)c(F)c13)c1nc-2c(Cl)[nH]1 (stereo partly drawn): 0.67 nM
NCc1ccc2c(c1)CCN(C(Cc1ccccc1)C(=O)Nc1ccc(C(=O)O)cc1)C2=O (stereo not drawn): 176 nM

Asked: Which value of Ki has been reported for `COC(=O)Nc1ccc2c(c1)NC(=O)[C@H](C)CCC[C@H](NC(=O)c1nnn(-c3cccc(Cl)c3F)c1C)c1nc-2c[nH]1` in the records?
Given back: 10.8 nM

Asked: Thanks! And `CCOC(=O)c1ccc(NC(=O)[C@H](Cc2ccccc2)n2cnc(-c3cc(Cl)ccc3-n3cc(Cl)nn3)cc2=O)cc1` ?
Given back: 196 nM
